Just for reference, patent US20240100072A1 is where these values come from.

- experiment notes: Metabolism and elimination
- measurement context: human, in vivo

{"columns": ["compound", "half-life"],
 "data": [
  ["C[C@@](Cc1ccc(O)c(O)c1)(NN)C(=O)O", "~2 h"],
  ["N[C@@H](Cc1ccc(O)c(O)c1)C(=O)O [levodopa, L-3,4-dihydroxyphenylalanine]", "~1.5 h"]
]}
